Target: human 5HT transporter (Homo sapiens)
Construct: host or cells: HEK cells
Sequence (P31645 whole entry): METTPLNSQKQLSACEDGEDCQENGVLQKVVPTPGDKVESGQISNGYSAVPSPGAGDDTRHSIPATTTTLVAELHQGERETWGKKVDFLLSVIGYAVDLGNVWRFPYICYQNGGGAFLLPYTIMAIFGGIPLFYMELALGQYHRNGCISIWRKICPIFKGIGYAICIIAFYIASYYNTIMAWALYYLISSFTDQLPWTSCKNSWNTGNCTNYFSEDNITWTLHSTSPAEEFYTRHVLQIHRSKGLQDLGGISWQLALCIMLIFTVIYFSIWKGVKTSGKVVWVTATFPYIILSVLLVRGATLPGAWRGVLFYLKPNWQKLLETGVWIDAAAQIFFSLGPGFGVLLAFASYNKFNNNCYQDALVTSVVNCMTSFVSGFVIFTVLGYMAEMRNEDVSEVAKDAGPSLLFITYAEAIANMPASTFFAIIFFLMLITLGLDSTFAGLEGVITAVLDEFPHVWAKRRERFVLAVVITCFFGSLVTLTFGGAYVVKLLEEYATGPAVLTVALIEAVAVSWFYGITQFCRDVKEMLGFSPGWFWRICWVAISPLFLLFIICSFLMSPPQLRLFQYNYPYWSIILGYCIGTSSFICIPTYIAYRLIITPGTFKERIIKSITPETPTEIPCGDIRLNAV
Test: Binding experiment for 5-HT transporter, [3H]Paroxetine
Settings: 5HT transporter-transfected HEK cells, [3H]Paroxetine binding; read-out: pIC50 5HT reuptake inhibition (converted)
Procedure: The interaction of the compounds of Formula (I) with dopamine-receptors, h5HT-transporter and h5HT1A receptor was assessed in in vitro radioligand binding experiments. […] When equilibrium of binding is reached, the receptor bound radioactivity is separated from the non-bound radioactivity, and the receptor- or transporter-bound activity is counted The interaction of the test compounds with the receptor is assessed in competition binding experiments. […]
MEASURED QUANTITY: IC50 (nM)
Just the number in nM, nothing appended.

Incoming: # query: IC50 of entry N#Cc1ccc2[nH]cc(C3CCN(CC4COc5ccncc5O4)CC3)c2c1 (single isomer, unassigned) [Compound 22]
Outgoing: 501

Incoming: # query: IC50 of entry Fc1ccc2[nH]cc(C3=CCN(CC4COc5cccnc5O4)CC3)c2c1 (stereo not shown) [I, reference compound]
Outgoing: 200

Incoming: # query: IC50 of entry Fc1cccc2c(C3=CCN(CC4COc5ccncc5O4)CC3)c[nH]c12 (stereo not shown)
Outgoing: 50.1

Incoming: # query: IC50 of entry CN1CC(CN2CCC(c3c[nH]c4ccc(F)cc34)CC2)Oc2ncccc21 (stereo not shown)
Outgoing: 316

Incoming: # query: IC50 of entry Fc1ccc2[nH]cc(C3=CCN(CC4COc5ccncc5O4)CC3)c2c1 (stereo not shown)
Outgoing: 50.1

Incoming: # query: IC50 of entry Fc1cccc2[nH]cc(C3=CCN(CC4COc5ccncc5O4)CC3)c12 (stereo not shown)
Outgoing: 100

Incoming: # query: IC50 of entry Clc1ccc2[nH]cc(C3CCN(CC4COc5ccncc5O4)CC3)c2c1 (stereo not shown)
Outgoing: 200

----------
Kindly supply the reported IC50 values for the records listed here.
Molecular target: Human Dopamine D2L receptor (Homo sapiens, UniProt P14416)
Construct: expressed in transfected cells; host or cells: CHO cells
Sequence (P14416 whole entry): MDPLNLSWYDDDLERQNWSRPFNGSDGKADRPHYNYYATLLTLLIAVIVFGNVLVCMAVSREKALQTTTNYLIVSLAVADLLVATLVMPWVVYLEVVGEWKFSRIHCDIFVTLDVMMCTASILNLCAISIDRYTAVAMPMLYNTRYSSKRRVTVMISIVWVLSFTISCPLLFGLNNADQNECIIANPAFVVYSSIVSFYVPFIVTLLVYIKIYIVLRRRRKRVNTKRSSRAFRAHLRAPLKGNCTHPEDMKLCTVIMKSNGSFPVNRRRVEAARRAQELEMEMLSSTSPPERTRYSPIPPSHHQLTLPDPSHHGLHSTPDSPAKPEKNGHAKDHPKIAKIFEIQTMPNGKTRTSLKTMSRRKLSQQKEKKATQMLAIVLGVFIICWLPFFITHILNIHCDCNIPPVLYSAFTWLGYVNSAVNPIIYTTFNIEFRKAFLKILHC
Assay: Radioligand binding experiment for dopamine D2 receptor (hD2), [3H]Spiperone
Conditions: membranes of D2L receptor-transfected CHO cells, read-out: pIC50 D2 (converted)
Just the number in nM, nothing appended.

Incoming: # query: IC50 of entry Fc1ccc2[nH]cc(C3=CCN(CC4COc5ccncc5O4)CC3)c2c1 (stereo not drawn) [Compound 4]
Outgoing: 158

Incoming: # query: IC50 of entry CN1CC(CN2CC=C(c3c[nH]c4ccc(F)cc34)CC2)Oc2ncccc21 (stereo not drawn) [Compound 1]
Outgoing: 200

Incoming: # query: IC50 of entry Fc1cccc2c(C3CCN(CC4COc5ccncc5O4)CC3)c[nH]c12 (stereo not drawn) [Compound 24]
Outgoing: 25.1

Incoming: # query: IC50 of entry N#Cc1ccc2[nH]cc(C3CCN(CC4COc5ccncc5O4)CC3)c2c1 (single isomer, unassigned) [Compound 22]
Outgoing: 794

Incoming: # query: IC50 of entry O=[N+]([O-])c1ccc2[nH]cc(C3=CCN(CC4COc5ccncc5O4)CC3)c2c1 (racemic) [Compound 14]
Outgoing: 100

Incoming: # query: IC50 of entry N#Cc1ccc2[nH]cc(C3CCN(CC4COc5ccncc5O4)CC3)c2c1 (single isomer, unassigned) [Compound 21]
Outgoing: 79.4

Incoming: # query: IC50 of entry Fc1ccc2[nH]cc(C3=CCN(CC4COc5cccnc5O4)CC3)c2c1 (stereo not drawn) [I, reference compound]
Outgoing: 251

Incoming: # query: IC50 of entry O=[N+]([O-])c1ccc2[nH]cc(C3=CCN(CC4COc5ccncc5O4)CC3)c2c1 (single isomer, unassigned) [Compound 15]
Outgoing: 200

Incoming: # query: IC50 of entry Fc1ccc2c(C3CCN(CC4COc5ccncc5O4)CC3)c[nH]c2c1 (stereo not drawn) [Compound 23]
Outgoing: 25.1

Incoming: # query: IC50 of entry CN1CC(CN2CCC(c3c[nH]c4ccc(F)cc34)CC2)Oc2ncccc21 (stereo not drawn) [Compound 2]
Outgoing: 398

Incoming: # query: IC50 of entry Fc1ccc2[nH]cc(CC3CCN(CC4COc5ccncc5O4)CC3)c2c1 (stereo not drawn) [Compound 25]
Outgoing: 794

Incoming: # query: IC50 of entry Clc1ccc2[nH]cc(C3CCN(CC4COc5ccncc5O4)CC3)c2c1 (stereo not drawn) [Compound 18]
Outgoing: 31.6

Incoming: # query: IC50 of entry Fc1ccc2[nH]cc(C3=CCN(CC4Oc5cccnc5O4)CC3)c2c1 (stereo not drawn) [Compound 7]
Outgoing: 251

----------
Kindly supply the reported IC50 values for the records listed here.
Target: Human 5HT1A receptor (Homo sapiens)
Construct: expressed in transfected cells; host or cells: L929 cells (stably transfected)
Sequence (P08908 1-422): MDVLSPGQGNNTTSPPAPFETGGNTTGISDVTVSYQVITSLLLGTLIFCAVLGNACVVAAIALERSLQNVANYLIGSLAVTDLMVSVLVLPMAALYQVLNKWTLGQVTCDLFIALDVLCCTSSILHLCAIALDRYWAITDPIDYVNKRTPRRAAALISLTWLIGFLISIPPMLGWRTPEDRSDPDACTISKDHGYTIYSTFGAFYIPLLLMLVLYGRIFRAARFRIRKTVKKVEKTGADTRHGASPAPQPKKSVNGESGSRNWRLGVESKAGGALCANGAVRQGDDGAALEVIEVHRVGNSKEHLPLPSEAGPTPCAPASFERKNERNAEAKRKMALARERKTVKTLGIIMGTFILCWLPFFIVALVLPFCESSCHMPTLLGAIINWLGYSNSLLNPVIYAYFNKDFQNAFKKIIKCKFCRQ
Assay: Binding experiment for 5-HT1A receptor, [3H]8OHDPAT
Conditions: membranes of 5HT1A receptor-transfected L929 cells, read-out: pIC50 5HT1A (converted)
Just the number in nM, nothing appended.

Incoming: Item: O=[N+]([O-])c1ccc2[nH]cc(C3=CCN(CC4COc5ccncc5O4)CC3)c2c1 (racemic) [Compound 14] Test system: Human 5HT1A receptor (Homo sapiens) Read-out: IC50 Value: ?
Outgoing: 200

Incoming: Item: Fc1ccc2[nH]cc(C3=CCN(CC4COc5ccncc5O4)CC3)c2c1 (stereo not shown) [Compound 4] Test system: Human 5HT1A receptor (Homo sapiens) Read-out: IC50 Value: ?
Outgoing: 126

Incoming: Item: CN1CC(CNCCCc2c[nH]c3ccc(F)cc23)Oc2ncccc21 (stereo not shown) [Compound 3] Test system: Human 5HT1A receptor (Homo sapiens) Read-out: IC50 Value: ?
Outgoing: 3.16

Incoming: Item: Fc1ccc2[nH]cc(C3=CCN(CC4Oc5cccnc5O4)CC3)c2c1 (stereo not shown) [Compound 7] Test system: Human 5HT1A receptor (Homo sapiens) Read-out: IC50 Value: ?
Outgoing: 398

Incoming: Item: N#Cc1ccc2[nH]cc(C3CCN(CC4COc5ccncc5O4)CC3)c2c1 (single isomer, unassigned) [Compound 22] Test system: Human 5HT1A receptor (Homo sapiens) Read-out: IC50 Value: ?
Outgoing: 10

Incoming: Item: Fc1ccc2[nH]cc(C3=CCN(CC4COc5cccnc5O4)CC3)c2c1 (stereo not shown) [I, reference compound] Test system: Human 5HT1A receptor (Homo sapiens) Read-out: IC50 Value: ?
Outgoing: 126

Incoming: Item: N#Cc1ccc2[nH]cc(C3CCN(CC4COc5ccncc5O4)CC3)c2c1 (single isomer, unassigned) [Compound 21] Test system: Human 5HT1A receptor (Homo sapiens) Read-out: IC50 Value: ?
Outgoing: 31.6

Incoming: Item: Fc1ccc2[nH]cc(C3CCN(CC4COc5ccncc5O4)CC3)c2c1 (stereo not shown) [Compound 5] Test system: Human 5HT1A receptor (Homo sapiens) Read-out: IC50 Value: ?
Outgoing: 39.8

Incoming: Item: Fc1ccc2[nH]cc(CCCNCC3COc4ccncc4O3)c2c1 (stereo not shown) [Compound 6] Test system: Human 5HT1A receptor (Homo sapiens) Read-out: IC50 Value: ?
Outgoing: 6.31

Incoming: Item: CN1CC(CN2CC=C(c3c[nH]c4ccc(F)cc34)CC2)Oc2ncccc21 (stereo not shown) [Compound 1] Test system: Human 5HT1A receptor (Homo sapiens) Read-out: IC50 Value: ?
Outgoing: 12.6

Incoming: Item: CN1CC(CN2CCC(c3c[nH]c4ccc(F)cc34)CC2)Oc2ncccc21 (stereo not shown) [Compound 2] Test system: Human 5HT1A receptor (Homo sapiens) Read-out: IC50 Value: ?
Outgoing: 15.8

Incoming: Item: Fc1ccc2[nH]cc(CCCNCC3Oc4cccnc4O3)c2c1 (stereo not shown) [Compound 9] Test system: Human 5HT1A receptor (Homo sapiens) Read-out: IC50 Value: ?
Outgoing: 31.6

Incoming: Item: Fc1ccc2[nH]cc(CCCNCC3COc4cccnc4O3)c2c1 (stereo not shown) [Compound 11] Test system: Human 5HT1A receptor (Homo sapiens) Read-out: IC50 Value: ?
Outgoing: 1.26

----------
Target: human 5HT transporter (Homo sapiens)
Construct: host or cells: HEK cells
Assay: Binding experiment for 5-HT transporter, [3H]Paroxetine
Details: 5HT transporter-transfected HEK cells, [3H]Paroxetine binding; read-out: pIC50 5HT reuptake inhibition (converted)
MEASURED QUANTITY: log10 of IC50 (log10 of the value in nM)
Note: values are log10 of IC50 expressed in nM.

Incoming: Item: Oc1ccc2[nH]cc(C3CCN(CC4COc5ccncc5O4)CC3)c2c1 (centres unmarked) Test system: human 5HT transporter (Homo sapiens) Read-out: log10 of IC50 Value: ?
Outgoing: 2.50

Incoming: Item: Fc1ccc2[nH]cc(CCCNCC3COc4ccncc4O3)c2c1 (centres unmarked) Test system: human 5HT transporter (Homo sapiens) Read-out: log10 of IC50 Value: ?
Outgoing: 2.50

Incoming: Item: Fc1ccc2[nH]cc(CCCNCC3Oc4cccnc4O3)c2c1 (centres unmarked) Test system: human 5HT transporter (Homo sapiens) Read-out: log10 of IC50 Value: ?
Outgoing: 2.70

Incoming: Item: Fc1cccc2c(C3CCN(CC4COc5ccncc5O4)CC3)c[nH]c12 (centres unmarked) Test system: human 5HT transporter (Homo sapiens) Read-out: log10 of IC50 Value: ?
Outgoing: 2.50

Incoming: Item: Fc1ccc2[nH]cc(CCCNCC3COc4cccnc4O3)c2c1 (centres unmarked) Test system: human 5HT transporter (Homo sapiens) Read-out: log10 of IC50 Value: ?
Outgoing: 2.50

Incoming: Item: CN1CC(CN2CC=C(c3c[nH]c4ccc(F)cc34)CC2)Oc2ncccc21 (centres unmarked) Test system: human 5HT transporter (Homo sapiens) Read-out: log10 of IC50 Value: ?
Outgoing: 1.20

Incoming: Item: N#Cc1ccc2[nH]cc(C3CCN(CC4COc5ccncc5O4)CC3)c2c1 (single isomer, unassigned) [Compound 21] Test system: human 5HT transporter (Homo sapiens) Read-out: log10 of IC50 Value: ?
Outgoing: 1.30

Incoming: Item: Brc1ccc2[nH]cc(C3=CCN(CC4COc5ccncc5O4)CC3)c2c1 (centres unmarked) Test system: human 5HT transporter (Homo sapiens) Read-out: log10 of IC50 Value: ?
Outgoing: 2.00

Incoming: Item: O=[N+]([O-])c1ccc2[nH]cc(C3=CCN(CC4COc5ccncc5O4)CC3)c2c1 (single isomer, unassigned) [Compound 15] Test system: human 5HT transporter (Homo sapiens) Read-out: log10 of IC50 Value: ?
Outgoing: 1.00

Incoming: Item: Fc1ccc2c(C3CCN(CC4COc5ccncc5O4)CC3)c[nH]c2c1 (centres unmarked) Test system: human 5HT transporter (Homo sapiens) Read-out: log10 of IC50 Value: ?
Outgoing: 2.40

Incoming: Item: Fc1ccc2[nH]cc(CC3CCN(CC4COc5ccncc5O4)CC3)c2c1 (centres unmarked) Test system: human 5HT transporter (Homo sapiens) Read-out: log10 of IC50 Value: ?
Outgoing: 1.80

Incoming: Item: CN1CC(CNCCCc2c[nH]c3ccc(F)cc23)Oc2ncccc21 (centres unmarked) Test system: human 5HT transporter (Homo sapiens) Read-out: log10 of IC50 Value: ?
Outgoing: 2.30

Incoming: Item: O=[N+]([O-])c1ccc2[nH]cc(C3=CCN(CC4COc5ccncc5O4)CC3)c2c1 (single isomer, unassigned) [Compound 16] Test system: human 5HT transporter (Homo sapiens) Read-out: log10 of IC50 Value: ?
Outgoing: 2.40

Incoming: Item: O=[N+]([O-])c1ccc2[nH]cc(C3=CCN(CC4COc5ccncc5O4)CC3)c2c1 (racemic) [Compound 14] Test system: human 5HT transporter (Homo sapiens) Read-out: log10 of IC50 Value: ?
Outgoing: 2.00

Incoming: Item: Fc1ccc2[nH]cc(C3CCN(CC4COc5ccncc5O4)CC3)c2c1 (centres unmarked) Test system: human 5HT transporter (Homo sapiens) Read-out: log10 of IC50 Value: ?
Outgoing: 2.10

Incoming: Item: N#Cc1ccc2[nH]cc(C3CCN(CC4COc5ccncc5O4)CC3)c2c1 (racemic) [Compound 20] Test system: human 5HT transporter (Homo sapiens) Read-out: log10 of IC50 Value: ?
Outgoing: 1.60
